target: biotinylated human PCSK9 (UniProt Q8NBP7 31-692, biotinylated (sites not given)); experiment: competition binding ELISA (PCSK9-LDLR)
pIC50: −log10 of the molar value.
METRIC_NAME: pIC50

YW508.20.84 (antibody, V domains shown) VH: EVQLVESGGGLVQPGGSLRLSCAASGFTFTGYAIHWVRQAPGKGLEWVARISPANGNTNYADSVKGRFTISADTSKNTAYLQMNSLRAEDTAVYYCARWIGSRELYIMDYWGQGTLVTVSS VL: DIQMTQSPSSLSASVGDRVTITCRASQDVSTAVAWYQQKPGKAPKLLIYSASFLYSGVPSRFSGSGSGTDFTLTISSLQPEDFATYYCQQSYPAPSTFGQGTKVEIKR	8.86
YW508.20 (antibody, V domains shown) VH: EVQLVESGGGLVQPGGSLRLSCAASGFTFTGYAIHWVRQAPGKGLEWVGRISPANGNTNYADSVKGRFTISADTSKNTAYLQMNSLRAEDTAVYYCARWIGSRELYIMDYWGQGTLVTVSS VL: DIQMTQSPSSLSASVGDRVTITCRASQDVSSAVAWYQQKPGKAPKLLIYSASSLYSGVPSRFSGSRSGTDFTLTISSLQPEDFATYYCQQSYTTPPTFGQGTKVEIKR	7.82
